Cited source: the supplement of paper PMC5844555

test system: PHOX2B; test: 3' UTR reporter interaction score (median-centred robust z-score of log2 firefly/Renilla activity); higher = less repression of the 3' UTR reporter; conditions: HEK293T; 48 h
Measured 3' UTR reporter interaction score values are reported for all entries that follow.

residueCodes	targetOrTestSystem	3' UTR reporter interaction score
GUUCUCCCAACGUAAGCCCAGC	PHOX2B	1.74
ACUCAAAAUGGGGGCGCUUUCC	PHOX2B	0.0383
UACCCUGUAGAUCCGAAUUUGUG	PHOX2B	-1.36
UCAGAACAAAUGCCGGUUCCCAGA	PHOX2B	-0.368
UAAUCUCAGCUGGCAACUGUG	PHOX2B	0.207
AGGAGGCAGCGCUCUCAGGAC	PHOX2B	0.109
ACUCAAAACCCUUCAGUGACUU	PHOX2B	-0.184
UUUGUGACCUGGUCCACUAACC	PHOX2B	0
UCGUGCAUCCCUUUAGAGUGUU	PHOX2B	-0.719
AGGCUGCGGAAUUCAGGAC	PHOX2B	-0.147
GAUGAGCUCAUUGUAAUAUG	PHOX2B	-0.674
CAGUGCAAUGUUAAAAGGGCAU	PHOX2B	0.897
UACUCAGGAGAGUGGCAAUCACA	PHOX2B	0.756
AGGGGUGGUGUUGGGACAGCUCCGU	PHOX2B	-0.841
CAUGCCUUGAGUGUAGGACCGU	PHOX2B	-1.4
AACAUUCAUUGCUGUCGGUGGG	PHOX2B	1.46
UCGUACCGUGAGUAAUAAUGC	PHOX2B	-1.05
GCGACCCACUCUUGGUUUCCA	PHOX2B	0.84
AAUCCUUUGUCCCUGGGUGAGA	PHOX2B	-0.304
AAUCAUACAGGGACAUCCAGUU	PHOX2B	1.38
CAAAGCGCUUCUCUUUAGAGUG	PHOX2B	-1.15
CAAAGCGCUCCCCUUUAGAGGU	PHOX2B	0.264
AAAGCGCUUCCCUUUGCUGGA	PHOX2B	0.212
UUUCAAGCCAGGGGGCGUUUUUC	PHOX2B	-0.413
UACCCAUUGCAUAUCGGAGUUG	PHOX2B	-0.552
UUUGUUCGUUCGGCUCGCGUGA	PHOX2B	0.0504
GUGCCUACUGAGCUGAUAUCAGU	PHOX2B	1.18
UGUGCAAAUCCAUGCAAAACUGA	PHOX2B	-0.753
UAAAGUGCUGACAGUGCAGAU	PHOX2B	0.0581
UGAGGUAGUAGUUUGUACAGU	PHOX2B	0.114
AACUGGCCCUCAAAGUCCCGCUUU	PHOX2B	0.301
AGACCAUGGGUUCUCAUUGU	PHOX2B	-1.43
ACUUGUAUGCUAGCUCAGGUAG	PHOX2B	0.171
AUGCACCUGGGCAAGGAUUCUG	PHOX2B	-3.43
UUCCCUUUGUCAUCCUUCGCCU	PHOX2B	-4.93
GGCGGAGGGAAGUAGGUCCGUUGGU	PHOX2B	-1.42
AUCGGGAAUGUCGUGUCCGCC	PHOX2B	0.773
CUCUAGAGGGAAGCGCUUUCUGUU	PHOX2B	-1.2
UGAGACCUCUGGGUUCUGAGCU	PHOX2B	-0.781
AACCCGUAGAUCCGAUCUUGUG	PHOX2B	-3.27
UGGAGAGAAAGGCAGUUC	PHOX2B	-0.292
UAACAGUCUACAGCCAUGGUCG	PHOX2B	-0.125
UGCACCAUGGUUGUCUGAGCAUG	PHOX2B	-1.01
AACCCGUAGAUCCGAACUUGUG	PHOX2B	-4.05
ACUAGACUGAAGCUCCUUGAGG	PHOX2B	-2.05
AAAGUGCAUCCUUUUAGAGUGUUAC	PHOX2B	-0.251
AGCUGUCUGAAAAUGUCUU	PHOX2B	1.04
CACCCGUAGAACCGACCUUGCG	PHOX2B	-3.87
UAAUACUGCCUGGUAAUGAUGAC	PHOX2B	-1.14
AGGCAGUGUAUUGUUAGCUGGC	PHOX2B	0.369
CAUCUGGAGGUAAGAAGCACUUU	PHOX2B	-0.503
UUGGUCCCCUUCAACCAGCUGU	PHOX2B	-0.898
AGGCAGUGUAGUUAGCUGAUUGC	PHOX2B	-1.02
CUCCAGAGGGAAGUACUUUCU	PHOX2B	0.786
UACAGUAUAGAUGAUGUACUAG	PHOX2B	1.45
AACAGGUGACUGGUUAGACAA	PHOX2B	2.14
AAAGCGCUUCUCUUUAGAGGA	PHOX2B	0.331
AUUCUAAUUUCUCCACGUCUUUG	PHOX2B	0.107
UCACAAUGCUGACACUCAAACUGCUGAC	PHOX2B	0.242
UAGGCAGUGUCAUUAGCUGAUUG	PHOX2B	1.92
AUUCAUUUGGUAUAAACCGCGAU	PHOX2B	-0.197
GUCAACACUUGCUGGUUUCCUC	PHOX2B	-0.934
CUGGAUGGCUCCUCCAUGUCU	PHOX2B	1.08
GUGAAAUGUUUAGGACCACUAG	PHOX2B	0.216
